- procedureText: Kinetic solubility (MultiScreen Solubility filter plate, UV)
- Type: physicochemical
- runConditions: aqueous buffer with 2% DMSO, pH 2, aqueous buffer, kinetic from dmso stock, recrystallized from ethyl acetate and methyl-tert-butyl ether mixture, polycrystal; 260 nm; read-out: Solubility at pH 2
measuredParameter: solubility at 1 h (µg/mL)
Express the result in µg/mL but write the number alone.

Problem: In one line, give reported solubility at 1 h of the entry C[C@H](N[P@](=O)(OC[C@H]1O[C@@H](n2ccc(=O)[nH]c2=O)[C@](C)(F)[C@@H]1O)Oc1ccccc1)C(=O)OC1CCC1 [Prodrug 1.1] .
Solution: 250

====

- procedureText: Kinetic solubility (MultiScreen Solubility filter plate, UV)
- Assay type: physicochemical
- runConditions: aqueous buffer with 2% DMSO, pH 2, aqueous buffer, kinetic from dmso stock, recrystallized from acetic acid, polycrystal; 260 nm; read-out: Solubility at pH 2
measuredParameter: solubility at 1 h (µg/mL)
Express the result in µg/mL but write the number alone.

Problem: In one line, give reported solubility at 1 h of the entry C[C@H](N[P@](=O)(OC[C@H]1O[C@@H](n2ccc(=O)[nH]c2=O)[C@](C)(F)[C@@H]1O)Oc1ccccc1)C(=O)OC1CCC1 [Prodrug 1.1] .
Solution: 630

====

- procedureText: Kinetic solubility (MultiScreen Solubility filter plate, UV)
- Type: physicochemical
- runConditions: aqueous buffer with 2% DMSO, pH 7, aqueous buffer, kinetic from dmso stock, recrystallized from acetic acid, polycrystal; 260 nm; read-out: Solubility at pH 7
measuredParameter: solubility at 1 h (µg/mL)
Express the result in µg/mL but write the number alone.

Problem: In one line, give reported solubility at 1 h of the entry C[C@H](N[P@](=O)(OC[C@H]1O[C@@H](n2ccc(=O)[nH]c2=O)[C@](C)(F)[C@@H]1O)Oc1ccccc1)C(=O)OC1CCC1 [Prodrug 1.1] .
Solution: 670

====

- procedureText: Kinetic solubility (MultiScreen Solubility filter plate, UV)
- Format: physicochemical
- runConditions: aqueous buffer with 2% DMSO, pH 2, aqueous buffer, kinetic from dmso stock, recrystallized from ethyl acetate, polycrystal; 260 nm; read-out: Solubility at pH 2
measuredParameter: solubility at 1 h (µg/mL)
Express the result in µg/mL but write the number alone.

Problem: In one line, give reported solubility at 1 h of the entry C[C@H](N[P@](=O)(OC[C@H]1O[C@@H](n2ccc(=O)[nH]c2=O)[C@](C)(F)[C@@H]1O)Oc1ccccc1)C(=O)OC1CCC1 [Prodrug 1.1] .
Solution: 220

====

- procedureText: Stability in human liver S9 fraction
- Format: in vitro ADME
- runConditions: pH 7.4; human liver S9 fraction 1 mg/ml protein, 37° C., 1 μM; read-out: T1/2 Human S9 (converted)
measuredParameter: half-life at 1 μM (min)
Express the result in min but write the number alone.

Problem: In one line, give reported half-life at 1 μM of the entry C[C@H](N[P@](=O)(OC[C@H]1O[C@@H](n2ccc(=O)[nH]c2=O)[C@](C)(F)[C@@H]1O)Oc1ccccc1)C(=O)OC1CCC1 [Prodrug 1.1] .
Solution: 3

====

What half-life at 1 μM was measured for each of the following?
- procedureText: physchem
- runConditions: simulated gi fluid, T1/2 SGF, artificial gastric juice, 37° C.

Problem: In one line, give reported half-life at 1 μM of the entry C[C@H](N[P@@](=O)(OC[C@H]1O[C@@H](n2ccc(=O)[nH]c2=O)[C@](C)(F)[C@@H]1O)Oc1ccccc1)C(=O)OC1CCC1 [Prodrug 1.2] .
Solution: 12.7 to 15 h

Problem: In one line, give reported half-life at 1 μM of the entry C[C@H](N[P@](=O)(OC[C@H]1O[C@@H](n2ccc(=O)[nH]c2=O)[C@](C)(F)[C@@H]1O)Oc1ccccc1)C(=O)OC1CCC1 [Prodrug 1.1] .
Solution: 12.7 to 15 h

Reference source: patent US20190054109A1
